Reported pIC50 by item:
Target chain: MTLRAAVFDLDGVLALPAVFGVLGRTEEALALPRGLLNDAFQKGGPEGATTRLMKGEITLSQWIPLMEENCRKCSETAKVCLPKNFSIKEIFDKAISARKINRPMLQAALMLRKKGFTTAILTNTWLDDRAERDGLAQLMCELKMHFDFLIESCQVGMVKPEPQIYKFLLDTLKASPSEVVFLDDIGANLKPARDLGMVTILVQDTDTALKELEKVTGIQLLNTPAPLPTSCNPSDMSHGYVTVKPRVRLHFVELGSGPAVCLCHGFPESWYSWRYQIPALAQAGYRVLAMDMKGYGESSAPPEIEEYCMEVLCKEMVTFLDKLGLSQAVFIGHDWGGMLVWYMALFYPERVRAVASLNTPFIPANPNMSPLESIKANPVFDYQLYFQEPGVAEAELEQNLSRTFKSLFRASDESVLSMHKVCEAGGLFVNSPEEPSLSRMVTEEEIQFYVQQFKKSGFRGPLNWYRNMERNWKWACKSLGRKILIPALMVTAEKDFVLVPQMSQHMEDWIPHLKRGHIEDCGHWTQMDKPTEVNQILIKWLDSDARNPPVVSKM
pIC50: −log10 of the molar value.
readoutType: pIC50

* CC(C)(C)OC(=O)N[C@@H](Cc1ccc(OCc2ccccc2)cc1)C(=O)O [Compound 23, Boc-L-Tyr(Bzl)] | 3.72
* COc1ccc(C[C@@H](NC(=O)OCC2c3ccccc3-c3ccccc32)C(=O)O)cc1 [Compound 72, Fmoc-D-Tyr(Me)] | < 3.70
* CC(=O)N[C@@H](CSC/C=C(\C)CC/C=C(\C)CCC=C(C)C)C(=O)O [AFC, N-Acetyl-S-farnesyl-L-cysteine, reference compound] | < 4.00
